Hey, just so you know, these numbers are from patent US20170022171A1.

- system: mouse MMP-9 (Mus musculus)
- Sequence (P41245 108-730): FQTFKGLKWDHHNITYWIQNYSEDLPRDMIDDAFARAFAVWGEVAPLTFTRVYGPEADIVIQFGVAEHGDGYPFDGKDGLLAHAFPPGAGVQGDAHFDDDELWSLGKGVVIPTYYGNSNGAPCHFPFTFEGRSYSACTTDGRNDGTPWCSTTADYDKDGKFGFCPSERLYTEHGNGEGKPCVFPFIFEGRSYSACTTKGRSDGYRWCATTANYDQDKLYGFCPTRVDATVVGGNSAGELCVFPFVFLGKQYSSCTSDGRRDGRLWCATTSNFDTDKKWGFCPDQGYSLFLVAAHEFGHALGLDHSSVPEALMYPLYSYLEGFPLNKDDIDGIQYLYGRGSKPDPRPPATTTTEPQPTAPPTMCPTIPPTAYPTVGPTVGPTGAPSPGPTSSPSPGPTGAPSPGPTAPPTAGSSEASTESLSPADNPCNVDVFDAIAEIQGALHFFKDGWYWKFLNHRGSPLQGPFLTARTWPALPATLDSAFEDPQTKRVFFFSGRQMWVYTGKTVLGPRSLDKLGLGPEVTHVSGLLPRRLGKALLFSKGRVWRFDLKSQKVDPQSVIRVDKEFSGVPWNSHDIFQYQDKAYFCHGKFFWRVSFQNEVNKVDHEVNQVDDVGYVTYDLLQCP
property-name: IC50 (nM)
Express it in nM; write the number only.

Check out these entries, answers already filled in.
[
  {
    "molecule": "Cc1ccc2nnn(C[C@@H]3CC[C@H](C(=O)c4ccc(OCc5cccc(OC(F)(F)F)c5)cc4)[C@H]3C(=O)O)c(=O)c2c1 (racemic)",
    "system": "mouse MMP-9 (Mus musculus)",
    "uom": "nM",
    "IC50": 910
  },
  {
    "molecule": "Cc1ccc2nnn(C[C@H]3CC[C@@H](C(=O)c4ccc(OCC5CCCCC5)cc4)[C@@H]3C(=O)O)c(=O)c2c1 (single isomer, unassigned)",
    "system": "mouse MMP-9 (Mus musculus)",
    "uom": "nM",
    "IC50": 230
  },
  {
    "molecule": "CCCCCOc1ccc(C(=O)[C@H]2CC[C@@H](Cn3nnc4ccc(C)cc4c3=O)[C@@H]2C(=O)O)cc1 (racemic)",
    "system": "mouse MMP-9 (Mus musculus)",
    "uom": "nM",
    "IC50": 770
  },
  {
    "molecule": "O=C(O)[C@@H]1[C@@H](Cn2nnc3ccc(C(F)(F)F)cc3c2=O)CC[C@H]1C(=O)c1ccc(SCc2ccccc2)cc1 (single isomer, unassigned)",
    "system": "mouse MMP-9 (Mus musculus)",
    "uom": "nM",
    "IC50": 2700
  },
  {
    "molecule": "Cc1ccc2nnn(C[C@@H]3CC[C@H](C(=O)c4ccc(OCc5ccccc5)cc4)[C@H]3C(=O)O)c(=O)c2c1 (racemic)",
    "system": "mouse MMP-9 (Mus musculus)",
    "uom": "nM",
    "IC50": 72
  }
]

Attention now shifts to the item below.
Need IC50, item O=C(O)[C@H]1[C@H](Cn2nnc3ccccc3c2=O)CC[C@@H]1C(=O)c1ccc(OCc2ccc(Cl)c(Cl)c2)cc1 (racemic)
2600
